Provenance of the data: PubChem BioAssay AID485313

# Assay Overview: qHTS Assay for NPC1 Promoter Activators; also: nearly all actives have a fitted effect of over 60% in size;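 as to activation: reporter is driven by a mutant NPC1 promoter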
# Conditions: Huh7 NPC1 promoter luciferase reporter, 24 h; series mostly up to 9.22 µM
Among all 320,000 compounds or so, about 7,600 (2.4%) were called active. Inconclusive results (about 3%) are left out. Calls follow the shape of the dose curve; as a rule, active = well fitted activation curve with a large enough effect; inconclusive = small, poorly fitted or top-dose-only effect; inactive = no such curve, though single readings can be large or run the other way. Only a selection was taken, and actives are over-represented in it overall.
Assign a class; possible classes are t for active, f for inactive

COc1ccc(Cl)cc1NC(=O)COc1ccc2c(c1)OCO2
f

In: How was O=C(CSc1nnc(-c2ccco2)n1CC1CCCO1)c1ccccc1 (configuration not stated) classified in this test?
Out: f

In: Entry c1ccc(CSc2nnc(-c3ccco3)n2Cc2ccccc2)cc1 : call = ?
Out: t

In: I would be grateful if you could indicate the recorded call for COC(=O)CSc1nnc(-c2cccnc2)o1 .
Out: f

In: Identify the outcome logged in this assay for the molecule shown: CN(C)c1nc(-c2cccnc2)nc(-c2ccc(Cl)cc2)c1C#N
Out: f

In: Please indicate how the test categorized Cc1ccn(CCC(=O)N2c3ccccc3CC2C)n1 (configuration not stated) .
Out: f

In: What did the test return for Cc1cc(N=Nc2ccc3ccccc3c2)ccc1O ?
Out: t
